# credit: paper PMC13541613

Target: ZNF721 DBD2 (Homo sapiens, UniProt Q8TF20-2 395-923)
Sequence (Q8TF20 383-911): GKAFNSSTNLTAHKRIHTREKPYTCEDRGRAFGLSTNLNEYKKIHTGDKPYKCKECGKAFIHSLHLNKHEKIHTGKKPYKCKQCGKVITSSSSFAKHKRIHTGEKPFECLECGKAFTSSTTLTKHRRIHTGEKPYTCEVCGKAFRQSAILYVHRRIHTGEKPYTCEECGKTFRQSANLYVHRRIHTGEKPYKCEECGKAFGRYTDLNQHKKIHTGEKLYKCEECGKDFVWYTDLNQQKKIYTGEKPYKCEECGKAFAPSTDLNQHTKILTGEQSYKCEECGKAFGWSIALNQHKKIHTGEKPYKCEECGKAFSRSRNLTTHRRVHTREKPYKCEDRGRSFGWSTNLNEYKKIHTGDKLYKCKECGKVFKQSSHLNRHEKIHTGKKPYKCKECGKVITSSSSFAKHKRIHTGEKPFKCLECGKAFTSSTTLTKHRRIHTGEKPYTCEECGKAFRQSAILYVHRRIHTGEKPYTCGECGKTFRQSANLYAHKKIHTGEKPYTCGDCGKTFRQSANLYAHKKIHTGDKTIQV
Test: HT-SELEX; 20 mM HEPES pH 7, 140 mM KCl, 5 mM NaCl, 1 mM K2HPO4, 2 mM MgSO4, 100 uM EGTA, ZnSO4, 0.1% Tween20; room temperature, 1 h; high values mean tight binding
Settings: protein: ivt; tags: eGFP (N-terminal); dsDNA, one strand shown
Cut-off 0.04 relative 10-mer count on binding signal, inclusive. At or above means 1; below means 0.

Examples from the recorded data:
>  <sequence-record>
TCCCCCCCCA

>  <study-target>
ZNF721 DBD2 (Homo sapiens, UniProt Q8TF20-2 395-923)

>  <label-value>
0

$$$$
>  <sequence-record>
CCCCCGCCCC

>  <study-target>
ZNF721 DBD2 (Homo sapiens, UniProt Q8TF20-2 395-923)

>  <label-value>
0

$$$$
>  <sequence-record>
CCCCTCCCTC

>  <study-target>
ZNF721 DBD2 (Homo sapiens, UniProt Q8TF20-2 395-923)

>  <label-value>
0

$$$$
>  <sequence-record>
CACCCCGCCA

>  <study-target>
ZNF721 DBD2 (Homo sapiens, UniProt Q8TF20-2 395-923)

>  <label-value>
0

$$$$

Task item: API: above_or_equal(metric=binding signal, cutoff=0.04 relative 10-mer count) for item CCCCCAACCC
Reply: 0

Task item: API: above_or_equal(metric=binding signal, cutoff=0.04 relative 10-mer count) for item AACAGTGTAT
Reply: 1

Task item: API: above_or_equal(metric=binding signal, cutoff=0.04 relative 10-mer count) for item CCCCCTCCTC
Reply: 0

Task item: API: above_or_equal(metric=binding signal, cutoff=0.04 relative 10-mer count) for item GAAAAAAAGC
Reply: 1

Task item: API: above_or_equal(metric=binding signal, cutoff=0.04 relative 10-mer count) for item CACCCACCGC
Reply: 0

====

Below is a list of entries, each paired with its recorded binding signal value.
Molecular target: ZNF721 DBD2 (Homo sapiens, UniProt Q8TF20-2 395-923)
Assay: HT-SELEX; 20 mM HEPES pH 7, 140 mM KCl, 5 mM NaCl, 1 mM K2HPO4, 2 mM MgSO4, 100 uM EGTA, ZnSO4, 0.1% Tween20; room temperature, 1 h; high values mean tight binding
Settings: protein: ivt; tags: eGFP (N-terminal); dsDNA, one strand shown
Use relative 10-mer count as the unit, but write only the number.

Solved entries (count: 6):
>  <sequence-record>
CCCCCACCCG

>  <binding signal / relative 10-mer count>
0.00384

$$$$
>  <sequence-record>
AAAAAAAAGG

>  <binding signal / relative 10-mer count>
0.12

$$$$
>  <sequence-record>
ACAGCGTTTC

>  <binding signal / relative 10-mer count>
0.448

$$$$
>  <sequence-record>
GAAAAAAGCA

>  <binding signal / relative 10-mer count>
0.15

$$$$
>  <sequence-record>
CACGCCCCCC

>  <binding signal / relative 10-mer count>
0.00635

$$$$
>  <sequence-record>
CACCCCCCCC

>  <binding signal / relative 10-mer count>
0.00384

$$$$

// next item, binding signal requested
Task item: Consider the sequence ACCCACCGCC and give its measured binding signal.
Reply: 0.00455
